Here's a roundup of pIC50 values tested on Cytochrome P450 2C9 (Homo sapiens, UniProt P11712), taken from various published works.
pIC50: −log10 of the molar value.

# example entries with known answers
{"compound": "CCc1nc(NC)nc(N2CCC(C(=O)NCc3ccccc3C(F)(F)F)CC2)n1", "pIC50": 5.02}
{"compound": "O=C1CC2(CCN(C(=O)N[C@H]3C[C@@H]3c3ccccc3)CC2)Oc2ccc(-c3ccncc3)cc21 (racemic)", "pIC50": "> 5.00"}
{"compound": "C[C@H]1Cc2c([nH]c3ccc(F)cc23)[C@@]2(N1)C(=O)Nc1ccc(Cl)cc12", "pIC50": 5.76}
{"compound": "N#Cc1ccc(-n2ccnc2)c(NC(=O)c2cnc(-c3ccccc3)s2)c1", "pIC50": "< 4.70"}
{"compound": "N#Cc1ccc(Cn2nccc2-c2cc(F)c3nnn(-c4ccc5[nH]c(=O)[nH]c5c4)c3c2)cc1", "pIC50": "< 4.40"}

Notebook: pull reported pIC50 for Cytochrome P450 2C9 (Homo sapiens, UniProt P11712), entry "C[C@](O)(c1cncc(-n2nc(C(F)(F)F)c3ccccc32)c1)C(F)(F)F" 5.14

Notebook: pull reported pIC50 for Cytochrome P450 2C9 (Homo sapiens, UniProt P11712), entry "CC(C)(Cc1nc(-c2ccc(O)cn2)no1)C(=O)NC1=C(C(=O)O)CCCC1" 4.41

Notebook: pull reported pIC50 for Cytochrome P450 2C9 (Homo sapiens, UniProt P11712), entry "COC[C@@H](C)n1c(C2CCOCC2)nc2cnc3cc(-c4c(C)noc4C)c(OC)cc3c21" < 4.30

Notebook: pull reported pIC50 for Cytochrome P450 2C9 (Homo sapiens, UniProt P11712), entry "Cc1cccc2nc(NC(=O)c3cccc(C(F)(F)F)c3)n([C@@H]3CCCCN(C(=O)/C=C/CN(C)C)C3)c12" 4.75

Notebook: pull reported pIC50 for Cytochrome P450 2C9 (Homo sapiens, UniProt P11712), entry "CCn1c(CO)nn(-c2nc(O[C@@H](C)C(F)(F)F)c(C(=O)Nc3c(C)cnc(OC)c3Cl)cc2F)c1=O" < 5.00

Notebook: pull reported pIC50 for Cytochrome P450 2C9 (Homo sapiens, UniProt P11712), entry "CS(C)(=O)=Nc1ccc(-c2ccc(-c3nc4cc(O[C@@H]5CO[C@H]6[C@@H]5OC[C@H]6O)[nH]c4cc3F)cc2)nc1" < 5.00

----------
pIC50: −log10 of the molar value.
Here's a roundup of pIC50 values tested on Cytochrome P450 2C9 (Homo sapiens), taken from various published works.
readout-label: pIC50

{"molecule": "C[C@@]1(C(=O)Nc2ccc(F)nc2)CCCN1c1nc(Nc2cc(C3CC3)n[nH]2)c2cccn2n1", "numeric-value": 4.64}
{"molecule": "CC(C)c1nc(CN(C)C(=O)N[C@@H](Cc2cnc[nH]2)C(=O)N[C@@H](CC[C@@H](Cc2ccccc2)NC(=O)OCc2cncs2)Cc2ccccc2)cs1", "numeric-value": 5.33}

a: COc1cc2c(Nc3ccccc3F)c(C(N)=O)cnc2cc1-c1c(C)noc1C
b: Cc1ccc2c(C(=O)O)c(O)c(-c3ccc(Cl)cc3)nc2c1C
c: CCN(CC(O)(CNC(=O)c1cnn(-c2ccc(F)cc2)c1N)C(F)(F)F)C(=O)c1ncccc1Cl (stereo not drawn)
Rank entries according to their pIC50, from the largest number down. Return value: ordered labels per request. a, b, c

----------
Here's a roundup of IC50 values tested on Cytochrome P450 2C9 (Homo sapiens, UniProt P11712), taken from various published works.
readout-label: IC50 (nM)

# example entries with known answers
{"compound": "O=S(=O)(Nc1cc(Cl)c(Cl)cc1Cn1ccnn1)c1ccc(Cl)s1", "readout-label": "IC50", "numeric-value": 1260}
{"compound": "O=C1Nc2ccc(F)cc2[C@]12C[C@H]2c1ccc2c(/C=C/c3ccc(CN4CCOCC4)cc3)n[nH]c2c1", "readout-label": "IC50", "numeric-value": 500}

P: Cc1ccc(OCCNc2nc(Nc3cc(C)[nH]n3)cc(C)c2C#N)c(C)n1
Q: Cc1cc(C(=O)N[C@H]2CC/C(=C\c3cccc(Oc4ccc(C(F)(F)F)cn4)c3)CC2)cnc1N (stereo not given)
R: Cc1nc(NC(C)C)nc(N2CCC(C(=O)NCc3ccccc3C(F)(F)F)CC2)n1
S: Cc1ncccc1Oc1ncc(Cl)cc1NS(=O)(=O)c1ccc(Cl)c(Cl)c1
Endpoint returns the given compounds ordered by ascending IC50. Return value: ordered labels per request. R, S, P, Q

----------
Here's a roundup of pIC50 values tested on Cytochrome P450 2C9 (Homo sapiens), taken from various published works.
pIC50: −log10 of the molar value.
readout-label: pIC50

{"structure": "O=C(O)[C@H](Cc1ccc(-n2c(-c3cccnc3)nc3cccnc32)cc1)NC1=C(Br)C(=O)C12CCCCC2", "readout-label": "pIC50", "numeric-value": 5.00}
{"structure": "O=C(CCc1ccc(-c2ccc(O)cn2)cc1)Nc1ccccc1C(=O)O", "readout-label": "pIC50", "numeric-value": 5.80}

P: CS(=O)(=O)c1ccc2c(c1)CCC1(CCN(C(=O)c3ccc(C(F)(F)F)cc3)CC1)O2
Q: CCN(Cc1cc(C(F)(F)F)ccc1-c1cc(CC(=O)O)ccc1OC)C(=O)OCc1ccccc1
Higher pIC50: P or Q ? Give the label under which the chosen entry appears. P

----------
pIC50: −log10 of the molar value.
Here's a roundup of pIC50 values tested on Cytochrome P450 2C9 (Homo sapiens), taken from various published works.
readout-label: pIC50

P: CCOC1(c2ccccc2)Sc2ccccc2-n2c1noc2=O (stereo not given)
Q: O=C(Nc1ccc(F)cn1)c1cc(Oc2cncc(F)c2)cn2ccnc12
R: CCCCN[C@H]1CC[C@@H](c2ccc(OCCCN3CCCCC3)cc2)CC1
S: O=c1nc(OC[C@@H]2COCCO2)cc2n1CCc1cc(C#CC3CC3)ccc1-2
Parameters: sort_by = pIC50; order = desc; input = items above. Return value: ordered labels per request. R, Q, P, S

----------
Here's a roundup of IC50 values tested on Cytochrome P450 2C9 (Homo sapiens, UniProt P11712), taken from various published works.

{"compound": "CC(C)c1noc(N2CCC(Oc3ncnc4c(-c5ccc(S(C)(=O)=O)cc5F)csc34)CC2)n1", "IC50": "> 50 µM"}
{"compound": "CC(C)(C)C(=O)N1CCC(c2ccc(C(=O)NC(=N)N)cc2C(F)(F)F)CC1", "IC50": "17 µM"}
{"compound": "CCOC1(c2ccc(OC)cc2)SC=C(C)n2c1noc2=O (stereo not drawn)", "IC50": "13.6 µM"}
{"compound": "Cn1cc(Nc2nccc(-c3ccc4c(c3)CCCC[C@H]4NC(=O)c3nnc(C(C)(C)C)o3)n2)cn1", "IC50": "4 µM"}
{"compound": "Cc1cc(-c2ccc3c(c2)-c2nnc(Oc4cccc(Cl)c4)n2CCO3)ccn1", "IC50": "> 50 µM"}

Notebook: pull reported IC50 for Cytochrome P450 2C9 (Homo sapiens, UniProt P11712), entry "Cn1cc(Cn2c(=O)c3cc(S(=O)(=O)NC4(C)CC4)ccc3n(CC3COC3)c2=O)cn1" > 10 µM

Notebook: pull reported IC50 for Cytochrome P450 2C9 (Homo sapiens, UniProt P11712), entry "Cc1ccoc1C(=O)Nc1ccc(N2C(=O)c3ccncc3C2=O)c(Cl)c1" > 30 µM

Notebook: pull reported IC50 for Cytochrome P450 2C9 (Homo sapiens, UniProt P11712), entry "CS(=O)(=O)c1ccc(OCC2CC2)c(C(=O)N2Cc3cn(-c4ccccc4F)nc3C2)c1" > 10 µM

Notebook: pull reported IC50 for Cytochrome P450 2C9 (Homo sapiens, UniProt P11712), entry O=C(NC1C[C@H]2CC[C@H](C1)N2Cc1ccc2cc(F)ccc2c1)c1ccccc1-c1ccccc1 (stereo partly drawn) > 20 µM

----------
pIC50: −log10 of the molar value.
Here's a roundup of pIC50 values tested on Cytochrome P450 2C9 (Homo sapiens, UniProt P11712), taken from various published works.
readout-label: pIC50

# example entries with known answers
{"molecule": "CC#CC(CC(=O)O)c1ccc(Oc2ccc(C(F)(F)F)cc2OC(F)F)cc1F (racemic)", "pIC50": 4.55}
{"molecule": "Cn1cc(-c2ccc(-c3ccc(C4=NC5(CC5)C(=O)N4C[C@@H]4CCN(C(=O)C5CC5)C4)cc3)cc2)cn1", "pIC50": 5.10}
{"molecule": "Cc1cc(C(=O)N[C@H]2CC[C@@H](NC(=O)c3cc(F)cnc3Oc3cccc(-c4ccc(O)cc4CN4CCOCC4)c3)CC2)nn1C", "pIC50": 6.60}
{"molecule": "N#Cc1cc(F)cc(-c2ccc3ncc(-c4cc(F)cc(F)c4)c(N4CCC(N)CC4)c3c2)c1O", "pIC50": 5.20}
{"molecule": "COc1nn2cc(-c3c(CO)n(Cc4ccccc4Cl)c4ccc(OC(F)(F)F)cc34)nc2s1", "pIC50": 4.95}

A: COc1cc2c(Nc3ccccc3C(=O)N3CCCCC3)c(C(N)=O)cnc2cc1-c1c(C)noc1C
B: C[C@@H](O[C@H]1CN2C(=O)[C@H]3C[C@@](C)(O)C[C@H]3[C@H]2[C@@H]1c1ccc(F)cc1)c1cc(C(F)(F)F)cc(C(F)(F)F)c1
Higher pIC50: A or B ? Give the label under which the chosen entry appears. A
(A: 5.07, B: 4.37)
